Recorded values, source the supplement of paper PMC7125110.

Parameter self-cleavage kobs at 40 uM GlcN6P: see the listing below.
B1: glmS ribozyme (parent)
chain: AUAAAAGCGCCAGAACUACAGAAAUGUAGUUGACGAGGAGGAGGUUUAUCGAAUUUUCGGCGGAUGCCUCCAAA

- Variants of: B1
- experiment_notes: self-cleavage kobs at 40 uM GlcN6P; higher = faster cleavage; RNA array
- study_conditions: with glucosamine-6-phosphate
This sample holds only a part of the variants without activity.

# variant, self-cleavage kobs at 40 uM GlcN6P
data = [
    ("A14G A39G", "0.004 s⁻¹"),
    ("U30C G40A A52G U55C C61G", "< 1e-05 s⁻¹"),
    ("C50G U57A G63U A64U", "7.9e-05 s⁻¹"),
    ("A6G A36C G51A", "< 1e-05 s⁻¹"),
    ("A6C A52U U54A U55C", "< 1e-05 s⁻¹"),
    ("C8G G60A", "< 1e-05 s⁻¹"),
    ("G29C A39C A48C G60A", "< 1e-05 s⁻¹"),
    ("G35A U69A", "< 1e-05 s⁻¹"),
    ("G29A U55A", "0.000165 s⁻¹"),
    ("G7U G62A", "< 1e-05 s⁻¹"),
    ("A36G A52U", "< 1e-05 s⁻¹"),
]
